target: H81Q (Homo sapiens, UniProt Q8WWM9, H81Q); experiment: UV-Vis difference spectroscopy titration of ferric cytoglobin; format: binding; conditions: SD, n = 3
Sequence (Q8WWM9 whole entry H81Q): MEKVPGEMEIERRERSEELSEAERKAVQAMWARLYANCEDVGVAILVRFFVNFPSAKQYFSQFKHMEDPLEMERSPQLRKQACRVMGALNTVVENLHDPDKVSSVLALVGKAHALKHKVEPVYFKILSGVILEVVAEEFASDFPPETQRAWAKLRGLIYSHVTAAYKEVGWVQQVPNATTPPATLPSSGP
result.type: Kd (µM)
State the answer as a number, implicitly in µM.

Q) Give the measured Kd of `c1c[nH]cn1` .
A) 15.3

----------
target: H81W (Homo sapiens, UniProt Q8WWM9, H81W); experiment: UV-Vis difference spectroscopy titration of ferric cytoglobin; format: binding; details: SD, n = 3
Sequence (Q8WWM9 whole entry H81W): as the sequence (Q8WWM9 whole entry H81Q) above, with Q81W counted along it
result.type: Kd
# output: numeric value plus its unit

Q) May I ask what Kd has been recorded for `c1c[nH]cn1` ?
A) 7.3 µM

// provenance: paper PMC9283305
